- Tested on: Human RSV-A (“Long” strain)
- Method Summary: RSV-A assay: CPE in Hep-2 cells, ATPlite readout
- Type: cell-based
- Conditions Used: human respiratory syncytial virus, 120 h, MOI 0.1, 5-day incubation
- Description: Hep-2 cells, (originally derived from tumors grown in irradiated-cortisonised weanling rats that had been injected with epidermoid carcinoma tissue from a person's larynx, but later found to be indistinguishable from HeLa cells by PCR DNA analysis), were used for the culturing of genotype A, “Long” strain RSV. […] Viral stock titers were quantified by tissue culture infectious dose 50% (TCID50) using 8,000 cells per well and 3-fold viral dilutions across a 96-well plate, cultured for 4 days. […]
Below: a set of entries, each annotated with reported EC50.

>>> print(df.to_string())
                                   compound  measured_property  reported
0  COc1cc(C(=O)NC[C@@](O)(c2ccccc2)c2cc(C(C)(C)O)c(F)c(-c3cccc(Cl)c3Cl)n2)cc2cn(C3CC3)nc12               EC50   < 10 nM

stdin: Would you kindly share the measured EC50 for "Cc1nc2c(OC(F)F)cc(C(=O)NC[C@@](O)(c3ccccc3)c3cc(C(C)(C)O)c(F)c(-c4cc(Cl)c(F)cc4F)n3)cc2cc1Br" ?
stdout: > 50 nM

stdin: So what does the record say about EC50 for "COc1cc(C(=O)NC[C@](O)(c2cc(C(C)(C)O)c(F)c(-c3cc(Cl)c(F)cc3F)n2)C2CC2)cc2cc(Cl)c(C)nc12" ?
stdout: < 10 nM

stdin: Any idea what EC50 was measured for COc1cc(C(=O)NC[C@](O)(c2cc(C3(C(N)=O)CC3)c(F)c(-c3ccc(F)c(Cl)c3F)n2)C2CC2)cc2cc(Cl)c(C)nc12 (single isomer, unassigned) ?
stdout: 10 to 50 nM

stdin: For "COc1cc(C(=O)NC[C@@](O)(c2ccccc2)c2cc(C(C)(C)O)c(F)c(-c3cc(F)c(F)cc3F)n2)cc2cn(C3CC3)nc12" , what is its reported EC50?
stdout: < 10 nM

stdin: # get_value(readout='EC50', item= COc1cc(C(=O)NC[C@](O)(c2cc(C3(C(N)=O)CC3)cc(-c3ccc(F)c(Cl)c3F)n2)C2CC2)cc2cn(C3CC3)nc12 (single isomer, unassigned) )
stdout: < 10 nM

====

In this section we review reported EC50 values for a set of molecules.
- Test system: Human RSV-A (“Long” strain)
- Method Summary: RSV-A assay: CPE in Hep-2 cells, ATPlite readout
- Assay type: cell-based
- Conditions Used: human respiratory syncytial virus, 120 h, MOI 0.1, 5-day incubation

Field: example entries. Status: answers known.
Molecule	EC50
Cc1nc2c(OC(F)F)cc(C(=O)NC[C@](O)(c3cc(C(C)(C)C(N)=O)c(F)c(-c4ccc(F)cc4)n3)C3CC3)cc2cc1Br (single isomer, unassigned) [Example 45]	10 to 50 nM
COc1cc(C(=O)NC[C@](O)(c2cc(C(F)(F)C(N)=O)c(F)c(-c3ccc(F)c(Cl)c3F)n2)C2CC2)cc2cn(C(F)F)nc12 (single isomer, unassigned) [Example 34]	10 to 50 nM
COc1cc(C(=O)NC[C@@](O)(c2ccccc2)c2cc(C(C)(C)O)c(F)c(-c3ccc(F)c(Cl)c3Cl)n2)cc2cn(C3CC3)nc12 [Example 67]	< 10 nM
COc1cc(C(=O)NC[C@](O)(c2cc(C3(C(N)=O)CC3)c(F)c(-c3cc(Cl)c(F)cc3F)n2)C2CC2)cc2cc(Cl)c(C)nc12 (single isomer, unassigned) [Example 19]	< 10 nM
COc1cc(C(=O)NC[C@](O)(c2cc(C(C)(C)O)c(F)c(-c3ccc(F)cc3)n2)C2CC2)cc2cn(C(F)F)nc12 [Example 2]	< 10 nM
COc1cc(C(=O)NC[C@@](O)(c2ccccc2)c2cc(C(C)(C)O)c(F)c(-c3ccc(F)c(Cl)c3F)n2)cc2cn(C3CC3)nc12 [Example 123]	< 10 nM
COc1cc(C(=O)NC[C@](O)(c2cc(C3(O)CNC3)c(F)c(-c3cc(Cl)c(F)cc3F)n2)C2CC2)cc2cn(C3CC3)nc12 [Example 170]	> 50 nM
COc1cc(C(=O)NC[C@](O)(c2cc(C(F)(F)C(N)=O)c(F)c(-c3cc(Cl)c(F)cc3F)n2)C2CC2)cc2cn(C3(F)CC3)nc12 (single isomer, unassigned) [Example 39]	< 10 nM
COc1cc(C(=O)NC[C@](O)(c2cc(N3CC[C@H](O)C3)cc(-c3cc(Cl)c(F)cc3F)n2)C2CC2)cc2cn(C3CC3)nc12 [Example 199]	> 50 nM
Cc1nc2c(OC3CC3)cc(C(=O)NC[C@](O)(c3cc(C4(O)CC4)c(F)c(-c4ccc(F)cc4)n3)C3CC3)cc2cc1Cl (single isomer, unassigned) [Example 49]	< 10 nM

stdin: If you can, please state the reported EC50 value of COc1cc(C(=O)NC[C@@](O)(c2ccccc2)c2cc(C(C)(C)O)c(F)c(-c3cc(Cl)c(F)cc3F)n2)cc2cn(C(F)F)nc12 [Example 62] .
stdout: < 10 nM

====

- Tested on: Human RSV-A (“Long” strain)
- Method Summary: RSV-A assay: CPE in Hep-2 cells, ATPlite readout
- Type: cell-based
- Conditions Used: human respiratory syncytial virus, 120 h, MOI 0.1, 5-day incubation
Measured Property: EC50

Example molecules with recorded EC50:
Molecule	EC50
NC(=O)C(F)(F)c1cc([C@@](O)(CNC(=O)c2cc(OC3CC3)c3nn(C4CC4)cc3c2)C2CC2)nc(-c2ccc(F)c(Cl)c2F)c1F (single isomer, unassigned)	10 to 50 nM
Cc1nc2c(OC(F)F)cc(C(=O)NC[C@](O)(c3cc(C(O)(C(F)(F)F)C(F)(F)F)c(F)c(-c4ccc(F)cc4)n3)C3CC3)cc2cc1Br (single isomer, unassigned)	10 to 50 nM

Pending molecule:
stdin: // lookup EC50 for "CC(C)(O)c1cc([C@@](O)(CNC(=O)c2cc(Cl)c3nn(C4CC4)cc3c2)C2CC2)nc(-c2ccc(F)cc2)c1F"
stdout: < 10 nM

====

As shown below, each of these compounds has a reported pEC50 value.
- System: Human RSV-A (“Long” strain)
- Method Summary: RSV-A assay: CPE in Hep-2 cells, ATPlite readout
- Assay type: cell-based
- Conditions Used: human respiratory syncytial virus, 120 h, MOI 0.1, 5-day incubation
pEC50: −log10 of the molar value.

stdin: Any idea what pEC50 was measured for COc1cc(C(=O)NC[C@](O)(c2cc(C(F)(F)C(N)=O)c(F)c(-c3ccc(F)c(Cl)c3F)n2)C2CC2)cc2cc(Cl)c(C)nc12 (single isomer, unassigned) [Example 35] ?
stdout: < 7.30

stdin: Requested field: pEC50. Item: COc1cc(C(=O)NC[C@@](O)(c2ccccc2)c2cc(C(C)(C)O)c(F)c(-c3ccc4c(c3Cl)OC(F)(F)O4)n2)cc2cn(C3CC3)nc12 [Example 74]
stdout: > 8.00

stdin: # get_value(readout='pEC50', item= [2H]C([2H])([2H])C(O)(c1cc([C@@](O)(CNC(=O)c2cc(OC)c3nn(C(F)F)cc3c2)c2ccccc2)nc(-c2cc(Cl)c(F)cc2F)c1F)C([2H])([2H])[2H] [Example 185] )
stdout: > 8.00

stdin: Consider the compound shown here: COc1cc(C(=O)NC[C@](O)(c2cc(C(O)(C(F)(F)F)C(F)(F)F)c(F)c(-c3ccc(F)cc3)n2)C2CC2)cc2cn(C3CC3)nc12 (single isomer, unassigned) [Example 47] What is its recorded pEC50?
stdout: 7.30 to 8.00

stdin: Which pEC50 value is on record for COc1cc(C(=O)NC[C@](O)(c2cc(C(C)(C)O)c(F)c(-c3ccc(F)cc3)n2)C2CC2)cc2cn(C3CC3)nc12 [Example 1] ?
stdout: > 8.00

====

# key: entry, value: EC50
- Tested on: Human RSV-A (“Long” strain)
- Method Summary: RSV-A assay: CPE in Hep-2 cells, ATPlite readout
- Type: cell-based
- Conditions Used: human respiratory syncytial virus, 120 h, MOI 0.1, 5-day incubation

stdin: Any idea what EC50 was measured for COc1cc(C(=O)NC[C@](O)(c2cc(C3(C(N)=O)CC3)c(F)c(-c3ccc(F)c(Cl)c3F)n2)C2CC2)cc2cn(C(F)F)nc12 (single isomer, unassigned) ?
stdout: < 10 nM

stdin: // query EC50 value for entry "COc1cc(C(=O)NC[C@](O)(c2cc(C(C)(C)O)c(F)c(-c3ccc(F)cc3)n2)C2CC2)cc2cn(C3(F)CC3)nc12"
stdout: < 10 nM

stdin: Find the recorded EC50 belonging to "COc1cc(C(=O)NC[C@](O)(c2cc(C(C)(C)F)c(F)c(-c3cc(Cl)c(F)cc3F)n2)C2CC2)cc2cn(C3CC3)nc12" and report it.
stdout: 10 to 50 nM

stdin: Report EC50 for COc1cc(C(=O)NC[C@](O)(c2cc(C3(O)CC3)c(F)c(-c3ccc(F)cc3)n2)C2CC2)cc2cn(C3CC3)nc12 (single isomer, unassigned) please.
stdout: < 10 nM

stdin: What does the data say about its EC50? Entry: "COc1cc(C(=O)NC[C@@](O)(c2ccccc2)c2nc(-c3cc(Cl)c(F)cc3F)c(F)c(C(C)(C)O)c2F)cc2cn(C3CC3)nc12"
stdout: < 10 nM

stdin: I am curious: what EC50 value has been reported for Cc1nc2c(OC3CC3)cc(C(=O)NC[C@](O)(c3cc(C(O)(C(F)(F)F)C(F)(F)F)c(F)c(-c4ccc(F)cc4)n3)C3CC3)cc2cc1Cl (single isomer, unassigned) ?
stdout: > 50 nM
